- tested-system: CYP2C9 (Homo sapiens)
- Sequence (P11712 whole entry): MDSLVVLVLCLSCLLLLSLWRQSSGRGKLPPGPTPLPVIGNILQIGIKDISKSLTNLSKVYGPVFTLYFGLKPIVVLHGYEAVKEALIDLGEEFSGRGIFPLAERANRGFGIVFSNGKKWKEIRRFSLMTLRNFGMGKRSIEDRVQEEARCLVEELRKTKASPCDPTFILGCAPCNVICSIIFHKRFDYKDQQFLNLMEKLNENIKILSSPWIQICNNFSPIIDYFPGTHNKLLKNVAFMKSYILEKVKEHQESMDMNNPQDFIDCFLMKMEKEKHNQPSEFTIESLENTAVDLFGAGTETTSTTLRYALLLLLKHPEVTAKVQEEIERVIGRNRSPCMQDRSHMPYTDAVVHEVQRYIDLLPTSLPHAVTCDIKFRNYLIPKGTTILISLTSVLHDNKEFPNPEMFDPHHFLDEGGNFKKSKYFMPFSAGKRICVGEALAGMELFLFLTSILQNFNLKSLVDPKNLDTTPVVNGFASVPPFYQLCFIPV
- assay-info: Chemical inhibition of CRV431 loss in human liver microsomes: CYP2C9
- Assay type: in vitro ADME
- Parameters: tissue Sekisui Xenotech, Kansas City, MO, USA; host or cells: human liver microsomes
- recorded-conditions: pH 7.4, probe CRV431 (1 μM; loss of parent), metabolism-dependent inhibitor, 30 min pre-incubation
reported-property: inhibition at 15 min
Param answer (str): number followed by unit.

Q: Could you share what inhibition at 15 min was measured for O=C(O)COc1ccc(C(=O)c2cccs2)c(Cl)c1Cl [tienilic acid] , tested on CYP2C9 (Homo sapiens)?
Result: 7%
